Each entry below carries its reported Dead/Total.
# System: MDA-MB-435 tumor xenografts
# testProtocol: Human tumor xenograft growth inhibition in athymic nude mouse model
# Type: in vivo, athymic (nu/nu) mice
# settings: 10 µmol/kg i.v., 3X/week for 3 weeks

{"compound": "CO[C@@H](C(=O)N[C@H]1CC[C@@H](OC(=O)C2CCCCC2)CNC1=O)[C@H](O)[C@@H](O)[C@H](O)/C=C/C(C)(C)C [Ex. 1]", "Dead/Total": "0/8"}
{"compound": "CO[C@@H](C(=O)N[C@H]1CC[C@@H](OC(=O)Cc2ccc(Cl)c(Cl)c2)CNC1=O)[C@H](O)[C@@H](O)[C@H](O)/C=C/C(C)(C)C [Ex. 8]", "Dead/Total": "0/8"}
{"compound": "COc1ccc(CC(=O)O[C@@H]2CC[C@H](NC(=O)[C@H](OC)[C@H](O)[C@@H](O)[C@H](O)/C=C/C(C)(C)C)C(=O)NC2)cc1 [Ex. 9]", "Dead/Total": "0/8"}
{"compound": "CO[C@@H](C(=O)N[C@H]1CC[C@@H](OC(=O)C2CCCCCC2)CNC1=O)[C@H](O)[C@@H](O)[C@H](O)/C=C/C(C)(C)C [Ex. 3]", "Dead/Total": "0/8"}
{"compound": "CO[C@@H](C(=O)N[C@H]1CC[C@@H](OC(=O)CCc2cccnc2)CNC1=O)[C@H](O)[C@@H](O)[C@H](O)/C=C/C(C)(C)C [Ex. 5]", "Dead/Total": "0/8"}
{"compound": "CCCCCCCCCCOc1ccc(C(=O)O[C@@H]2CC[C@H](NC(=O)[C@H](OC)[C@H](O)[C@@H](O)[C@H](O)/C=C/C(C)(C)C)C(=O)NC2)cc1 [Ex. 10]", "Dead/Total": "0/8"}

Entry CO[C@@H](C(=O)N[C@H]1CC[C@@H](OC(=O)CCc2ccccc2)CNC1=O)[C@H](O)[C@@H](O)[C@H](O)/C=C/C(C)(C)C [Ex. 4] : reported Dead/Total = ?
0/8

And the next one, CCCCCCCCCCc1ccc(C(=O)O[C@@H]2CC[C@H](NC(=O)[C@H](OC)[C@H](O)[C@@H](O)[C@H](O)/C=C/C(C)(C)C)C(=O)NC2)cc1 [Ex. 12] ?
0/8

And the next one, CO[C@@H](C(=O)N[C@H]1CC[C@@H](OC(=O)C2CCCC2)CNC1=O)[C@H](O)[C@@H](O)[C@H](O)/C=C/C(C)(C)C [Ex. 2] ?
0/8

And the next one, CO[C@@H](C(=O)N[C@H]1CC[C@@H](OC(=O)CC2CCCCC2)CNC1=O)[C@H](O)[C@@H](O)[C@H](O)/C=C/C(C)(C)C [Ex. 6] ?
0/8

And the next one, CO[C@@H](C(=O)N[C@H]1CC[C@@H](OC(=O)Cc2ccccc2)CNC1=O)[C@H](O)[C@@H](O)[C@H](O)/C=C/C(C)(C)C [Ex. 7] ?
0/8

And the next one, CO[C@@H](C(=O)N[C@H]1CC[C@@H](OC(=O)/C=C/c2ccccc2)CNC1=O)[C@H](O)[C@@H](O)[C@H](O)/C=C/C(C)(C)C [Ex. 11] ?
0/8

Sourced from patent EP1131297B1
